Recorded values, source the supplement of paper PMC6555819.

# Tested on: PPARg:RXRa 30nM:10nM, anti-RXR (NR concentration 30 nM, RXRa partner concentration 10 nM)
# procedure.details: PBM binding z-score (relative to random genomic background probes); higher = stronger binding; sequences stand for … in GC…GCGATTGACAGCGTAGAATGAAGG
Quick reference: PBM binding z-score of the listed items.
// response body must contain only the number

sequence.code | measured.result
CCTCGGAGGACAAAAGGAGGTCAGAGCTGCCAGA | -0.33

The sequence identified as ATCGAAAGGTCGACGAGCTGAGTATACACCGTTT registered its PBM binding z-score at 1.17

The sequence identified as TCTAGTTGGTCACGGAAGTCACACACGACGGGTA registered its PBM binding z-score at 3.33
